experiment: Growth inhibition, sulforhodamine B (SRB) assay, SKOV-3; type: cell-based; conditions: human, SKOV-3 ovarian carcinoma cells, SKOV-3, 96 hr incubation, tested as salts, read-out: Cytotoxicity - IC50 SKOV-3
IC50 at 96 h strictly less than 10 µM = satisfied. Otherwise not satisfied.

{"compound": "O=C(CCN1CCCC1)Nc1ccc2c(NC3CCCCC3)c3ccc(NC(=O)CCN4CCCC4)cc3nc2c1", "category": "satisfied"}
{"compound": "O=C(CCN1CCCC1)Nc1ccc2c(=O)c3ccc(NC(=O)CCN4CCCC4)cc3[nH]c2c1", "category": "not satisfied"}
{"compound": "CC1(C)CC2CC(C)(CN2CCC(=O)Nc2ccc3c(=O)c4ccc(NC(=O)CCN5CC6(C)CC5CC(C)(C)C6)cc4[nH]c3c2)C1", "category": "satisfied"}
{"compound": "CN(C)CCNc1c2ccc(NC(=O)CCN3CCCC3)cc2nc2cc(NC(=O)CCN3CCCC3)ccc12", "category": "not satisfied"}
{"compound": "CN(C)CCCNc1c2ccc(NC(=O)CCN3CCCC3)cc2nc2cc(NC(=O)CCN3CCCC3)ccc12", "category": "not satisfied"}
{"compound": "CC1CCCCN1CCC(=O)Nc1ccc2nc3ccc(NC(=O)CCN4CCCCC4C)cc3c(O)c2c1 (stereo not drawn)", "category": "not satisfied"}
{"compound": "O=C(CCN1CCCCC1)Nc1ccc2c(=O)c3ccc(NC(=O)CCN4CCCCC4)cc3[nH]c2c1", "category": "not satisfied"}
{"compound": "CN(C)CCC(=O)Nc1ccc2c(=O)c3ccc(NC(=O)CCN(C)C)cc3[nH]c2c1", "category": "not satisfied"}
{"compound": "O=C(CCN1CCCC1)Nc1ccc2c(NCCN3CCCCC3)c3ccc(NC(=O)CCN4CCCC4)cc3nc2c1", "category": "not satisfied"}
{"compound": "CC1CCCCN1CCC(=O)Nc1ccc2c(=O)c3ccc(NC(=O)CCN4CCCCC4C)cc3[nH]c2c1 (stereo not drawn)", "category": "not satisfied"}
{"compound": "Nc1ccc(Nc2c3ccc(NC(=O)CCN4CCCC4)cc3nc3ccc(NC(=O)CCN4CCCC4)cc23)cc1", "category": "not satisfied"}
{"compound": "CN1CCN(CCC(=O)Nc2ccc3[nH]c4ccc(NC(=O)CCN5CCN(C)CC5)cc4c(=O)c3c2)CC1", "category": "not satisfied"}
{"compound": "CC(=O)c1ccc(Nc2c3ccc(NC(=O)CCN4CCCC4)cc3nc3cc(NC(=O)CCN4CCCC4)ccc23)cc1", "category": "satisfied"}
{"compound": "O=C(CCN1CCCCC1)Nc1ccc2nc3ccc(NC(=O)CCN4CCCCC4)cc3c(O)c2c1", "category": "not satisfied"}
{"compound": "O=C(CCN1CCCC1)Nc1ccc2nc3ccc(NC(=O)CCN4CCCC4)cc3c(O)c2c1", "category": "not satisfied"}
